Hi there, I'd appreciate the recorded Percent RBC Binding to CD33 for every entry that follows.
# Target under test: T1, human CD33 Fc fusion protein (human, UniProt P20138 18-259)
# T1 construct: also called hCD33-Fc; human CD33/Fc chimera (R&D Systems)
# T1 sequence (P20138 18-259 limits assumed): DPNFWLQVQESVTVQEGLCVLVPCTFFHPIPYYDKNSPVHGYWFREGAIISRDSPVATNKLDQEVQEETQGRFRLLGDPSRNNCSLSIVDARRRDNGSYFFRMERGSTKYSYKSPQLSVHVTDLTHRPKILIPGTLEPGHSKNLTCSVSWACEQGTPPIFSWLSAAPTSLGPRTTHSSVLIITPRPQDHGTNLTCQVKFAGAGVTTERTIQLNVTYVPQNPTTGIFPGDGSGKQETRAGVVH
# Assay notes: RBC adhesion to plate-bound CD33-Fc; antibody 0.5 ug/ml;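 note: Plate-coated CD33-Fc preincubated 1 h with antibody, then red blood cells added for 1 h at room temperature, adherent cells lysed and quantified via peroxidase activity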
Give bare numbers, in %.

Examples with answers:
INSERT INTO measurements (binder, test_value) VALUES
  ('C-51 (antibody, V domains shown, human IgG1) VH: QLQLQESGPGLVKPSETLSLTCTVSGGSISSSSYYWGWIRQPPGKGLEWIGSIYYSGSTYYNPSLKSRVTISVDTSKNQFSLKLSSVTAADTAVYYCARGAPHDYGGGVGWFDPWGQGTTVTVSS VL: DIQMTQSPSSVSASVGDRVTITCRASQGISSWLAWYQQKPGKAPKLLIYAASNLQSGVPSRFSGSGSGTDFTLTISSLQPEDFATYYCQQSRVFPWTFGGGTKVEIK', 96.6),
  ('C-25 (antibody, V domains shown, human IgG1) VH: EVQLVESGGGLVQPGGSLRLSCAASGFTFSSYWMSWVRQAPGKGLEWVANIKSDGSEKYYVDSVKGRFTISRDNAKNSLYLQMNSLRAEDTAVYYCAREGFRDGINWFDPWGQGTLVTVSS VL: DIQMTQSPSSLSASVGDRVTITCRASQSISRYLNWYQQKPGKAPKLLIYAASSLQSGVPSRFSGSGSGTDFTLTISSLQPEDFATYYCQQQFLTPITFGGGTKVEIK', 11.3),
  ('C-36 (antibody, V domains shown, human IgG1) VH: EVQLVESGGGLVQPGGSLRLSCAASGFTFSSYWMSWVRQAPGKGLEWVANIKQDGSEKYYVDSVKGRFTISRDNAKNSLYLQMNSLRAEDTAVYYCARDGQYYPAYGMDVWGQGTTVTVSS VL: EIVMTQSPATLSVSPGERATLSCRASQSVSSNLAWYQQKPGQAPRLLIYGASTRATGIPARFSGSGSGTEFTLTISSLQSEDFAVYYCQQYFDLPTFGGGTKVEIK', 13.4),
  ('C-34 (antibody, V domains shown, human IgG1) VH: EVQLVESGGGLVQPGGSLRLSCAASGFTFSSYWMSWVRQAPGKGLEWVANINQDGSEKYYVDSVKGRFTISRDNAKNSLYLQMNSLRAEDTAVYYCARDHGATGPDFDLWGRGTLVTVSS VL: DIQMTQSPSSLSASVGDRVTITCRASQSISSYLNWYQQKPGKAPKLLIYGASSLQSGVPSRFSGSGSGTDFTLTISSLQPEDFATYYCQQQYLTPLTFGGGTKVEIK', 14.4);

Bench note: what Percent RBC Binding to CD33 did C-87 (antibody, V domains shown, human IgG1) VH: QLQLQESGPGLVKPSETLSLTCTVSGGSISSSSYAWGWIRQPPGKGLEWIGSIYYSGSTYYNPSLKSRVTISVDTSKNQFSLKLSSVTAADTAVYYCARDPLYPLTPYGMDVWGQGTTVTVSS VL: EIVMTQSPATLSLSPGERATLSCRASQSVSSYLAWYQQKPGQAPRLLIYDASNRATGIPARFSGSGSGTDFTLTISSLEPEDFAVYYCQQLSVFPPTFGGGTKVEIK show? 29.4
